Just for reference, patent US20240116985A1 is where these values come from.

Molecular target: T1, full-length beta-Catenin (Uniprot ID P35222) (Homo sapiens (Human), UniProt P35222 2-781)
T1 construct: The AlphaScreen assay used a Histidine (Nickel Chelate) detection kit, so a His tag is likely, but no tag is described; also called B-Catenin; bCat
T1 sequence: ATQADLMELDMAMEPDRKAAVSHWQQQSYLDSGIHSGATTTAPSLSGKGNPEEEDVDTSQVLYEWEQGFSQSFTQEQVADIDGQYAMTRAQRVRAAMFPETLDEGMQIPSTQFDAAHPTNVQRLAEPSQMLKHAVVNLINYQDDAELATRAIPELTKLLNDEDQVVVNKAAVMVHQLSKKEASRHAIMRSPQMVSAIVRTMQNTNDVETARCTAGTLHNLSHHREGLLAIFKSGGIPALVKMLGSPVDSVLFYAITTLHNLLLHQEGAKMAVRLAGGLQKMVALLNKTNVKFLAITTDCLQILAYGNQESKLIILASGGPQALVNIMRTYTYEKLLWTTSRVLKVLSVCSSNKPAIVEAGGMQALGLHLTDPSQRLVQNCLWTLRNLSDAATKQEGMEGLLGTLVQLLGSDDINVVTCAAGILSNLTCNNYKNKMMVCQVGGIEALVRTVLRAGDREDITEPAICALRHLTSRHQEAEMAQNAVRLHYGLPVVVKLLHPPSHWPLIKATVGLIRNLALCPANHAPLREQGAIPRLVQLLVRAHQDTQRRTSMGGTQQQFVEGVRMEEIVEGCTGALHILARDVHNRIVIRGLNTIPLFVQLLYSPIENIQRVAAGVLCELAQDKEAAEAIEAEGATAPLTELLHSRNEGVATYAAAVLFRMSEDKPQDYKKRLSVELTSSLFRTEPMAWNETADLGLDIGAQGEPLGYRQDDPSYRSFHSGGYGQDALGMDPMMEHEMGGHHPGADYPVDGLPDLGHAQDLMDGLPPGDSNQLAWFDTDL
Assay: AlphaScreen competition: full-length beta-catenin + biotin-TCF4(10-53) probe, peptide titrated
Starred links: 1 amine or outer side, 2 acyl side, 3 side chain; linkers in the order of their positions; H or OH if unused. Positions of bridges follow the written chain, without caps; N, C: chain ends. Non-standard residues stand in square brackets, D forms with d. Primed or numbered codes have the meaning given here. B5(4) = 2,2-bis(4-pentenyl)glycine = 2-amino-2-(pent-4-en-1-yl)hept-6-enoic acid (stitching residue), C=CCCCC(CCCC=C)(N[*:1])C(=O)[*:2]; B5(5) = 2,2-bis(4-pentenyl)glycine, 2-amino-2-(pent-4-en-1-yl)hept-6-enoic acid (stitching residue), C=CCCCC(CCCC=C)(N[*:1])C(=O)[*:2]; PyrS = (S)-1-((allyloxy)carbonyl)-3-aminopyrrolidine-3-carboxylic acid, C=CCOC(=O)N1CC[C@@](N[*:1])(C(=O)[*:2])C1; B5(3) = 2,2-bis(4-pentenyl)glycine (stitching residue), C=CCCCC(CCCC=C)(N[*:1])C(=O)[*:2]; B5 = 2-amino-2-(pent-4-en-1-yl)hept-6-enoic acid, C=CCCCC(CCCC=C)(N[*:1])C(=O)[*:2]; Phe(3-CF3) = N[C@@H](Cc1cccc(C(F)(F)F)c1)C(=O)O; Phe(4-CF3) = N[C@@H](Cc1ccc(C(F)(F)F)cc1)C(=O)O; Phe(3,5-F2) = N[C@@H](Cc1cc(F)cc(F)c1)C(=O)O; 1Nal = N[C@@H](Cc1cccc2ccccc12)C(=O)O; αAllylPro = C=CC[C@@]1(C(=O)O)CCCN1; 4Pal = N[C@@H](Cc1ccncc1)C(=O)O; R8 = C=CCCCCCC[C@@](C)(N)C(=O)O; S8 = C=CCCCCCC[C@](C)(N)C(=O)O
value-type: EC50 (µM)
Express it in µM; write the number only.

# query: EC50 of entry Ac-[αAllylPro]DA[B5(3)]D[1Nal]AAFV[S8]FWQ-NH2 (staple 1-4, 4-11, Stapled peptide composition; also called Ac-PL3-Asp-Ala-B5-Asp-1NapA-Ala-Ala-Phe-Val-S8-Phe-Trp-Gln-NH2) [I-234] 7.53

Now this one: Ac-[αAllylPro]DA[B5(4)]DDAAFV[S8][Phe(4-CF3)]WQ-NH2 (staple 1-4, 4-11, Stapled peptide composition; also called Ac-PL3-Asp-Ala-B5-Asp-Asp-Ala-Ala-Phe-Val-S8-4F3MeF-Trp-Gln-NH2) [I-253] 3.69

Lookup Ac-[αAllylPro]DA[B5(4)]DEAA[Phe(3,5-F2)]V[S8]FWQ-NH2 (staple 1-4, 4-11, Stapled peptide composition; also called Ac-PL3-Asp-Ala-B5-Asp-Glu-Ala-Ala-35FF-Val-S8-Phe-Trp-Gln-NH2) [I-219] 0.131

Likewise for Ac-[αAllylPro]DA[B5(3)]DDAA[Phe(3-CF3)]V[S8]FWQ-NH2 (staple 1-4, 4-11, Stapled peptide composition; also called Ac-PL3-Asp-Ala-B5-Asp-Asp-Ala-Ala-3F3MeF-Val-S8-Phe-Trp-Gln-NH2) [I-237] ? 0.384

Same again, this time with Ac-[αAllylPro]DA[B5(4)]DDAAFV[S8][Phe(4-CF3)]WQ-NH2 (staple 1-4, 4-11, Stapled peptide composition; also called Ac-PL3-Asp-Ala-B5-Asp-Asp-Ala-Ala-Phe-Val-S8-4F3MeF-Trp-Gln-NH2) [I-252] 3.69

Item: Ac-[αAllylPro]DA[B5]DDAAFV[S8][Phe(3-CF3)]WQ-NH2 (staple 1-4, 4-11, Stapled peptide composition; also called Ac-PL3-Asp-Ala-B5-Asp-Asp-Ala-Ala-Phe-Val-S8-3F3MeF-Trp-Gln-NH2) [I-250] 1.2

Same again, this time with Ac-[αAllylPro]DA[B5(5)]DDAA[Phe(4-CF3)]V[S8]FWQ-NH2 (staple 1-4, 4-11; not fully specified; printed as Ac-PL3-Asp-Ala-B5-Asp-Asp-Ala-Ala-4F3MeF-Val-S8-Phe-Trp-Gln-NH2, Stapled peptide composition; also called Ac-PL3-Asp-Ala-B5-Asp-Asp-Ala-Ala-4F3MeF-Val-S8-Phe-Trp-Gln-NH2) [I-241] 3.47

Then this binder: Ac-FDA[R8]DDAAFT[PyrS]FWQ-NH2 (staple 4-11, Stapled peptide composition; also called Ac-Phe-Asp-Ala-R8-Asp-Asp-Ala-Ala-Phe-Thr-PyrS-Phe-Trp-Gln-NH2) [I-221] 6.58

Another: Ac-[αAllylPro]DA[B5][4Pal]EAAFV[S8]FWQ-NH2 (staple 1-4, 4-11, Stapled (stitched) peptide composition; also called Ac-PL3-Asp-Ala-B5-4pyrA-Glu-Ala-Ala-Phe-Val-S8-Phe-Trp-Gln-NH2) [I-214] 7.21

Now consider Ac-[αAllylPro]DA[B5(5)]DDAA[Phe(3-CF3)]V[S8]FWQ-NH2 (staple 1-4, 4-11; not fully specified; printed as Ac-PL3-Asp-Ala-B5-Asp-Asp-Ala-Ala-3F3MeF-Val-S8-Phe-Trp-Gln-NH2, Stapled peptide composition; also called Ac-PL3-Asp-Ala-B5-Asp-Asp-Ala-Ala-3F3MeF-Val-S8-Phe-Trp-Gln-NH2) [I-239] . 0.267

Next binder: Ac-[αAllylPro]DA[B5(3)]DWAAFV[S8]FWQ-NH2 (staple 1-4, 4-11, Stapled peptide composition; also called Ac-PL3-Asp-Ala-B5-Asp-Trp-Ala-Ala-Phe-Val-S8-Phe-Trp-Gln-NH2) [I-233] 5.9

Query Ac-[αAllylPro]DA[B5(4)]DDAAFV[S8][Phe(3-CF3)]WQ-NH2 (staple 1-4, 4-11, Stapled peptide composition; also called Ac-PL3-Asp-Ala-B5-Asp-Asp-Ala-Ala-Phe-Val-S8-3F3MeF-Trp-Gln-NH2) [I-249] next 2.83

Quick one: Ac-[αAllylPro]DA[B5(4)]D[Phe(4-CF3)]AAFV[S8]FWQ-NH2 (staple 1-4, 4-11, Stapled peptide composition; also called Ac-PL3-Asp-Ala-B5-Asp-4F3MeF-Ala-Ala-Phe-Val-S8-Phe-Trp-Gln-NH2) [I-247] 3.97

Moving on to Ac-[αAllylPro]DA[B5(4)]DEAA[Phe(3,5-F2)]V[S8]FWQ-NH2 (staple 1-4, 4-11, Stapled peptide composition; also called Ac-PL3-Asp-Ala-B5-Asp-Glu-Ala-Ala-35FF-Val-S8-Phe-Trp-Gln-NH2) [I-220] 0.131

// repeat for Ac-FDA[R8]DDAAFT[PyrS]FWQ-NH2 (staple 4-11, Stapled peptide composition; also called Ac-Phe-Asp-Ala-R8-Asp-Asp-Ala-Ala-Phe-Thr-PyrS-Phe-Trp-Gln-NH2) [I-224] and report 4.12

For Ac-[αAllylPro]DA[B5(5)]DDAA[Phe(4-CF3)]V[S8]FWQ-NH2 (staple 1-4, 4-11; not fully specified; printed as Ac-PL3-Asp-Ala-B5-Asp-Asp-Ala-Ala-4F3MeF-Val-S8-Phe-Trp-Gln-NH2, Stapled peptide composition; also called Ac-PL3-Asp-Ala-B5-Asp-Asp-Ala-Ala-4F3MeF-Val-S8-Phe-Trp-Gln-NH2) [I-242] then? 4.91

Same question for Ac-[αAllylPro]DA[B5(5)]DDAA[Phe(4-CF3)]V[S8]FWQ-NH2 (staple 1-4, 4-11; not fully specified; printed as Ac-PL3-Asp-Ala-B5-Asp-Asp-Ala-Ala-4F3MeF-Val-S8-Phe-Trp-Gln-NH2, Stapled peptide composition; also called Ac-PL3-Asp-Ala-B5-Asp-Asp-Ala-Ala-4F3MeF-Val-S8-Phe-Trp-Gln-NH2) [I-243] please. 4.91
